Below are pKi values recorded for UniProt:Q923Y8.
Sequence (Q923Y8 whole entry): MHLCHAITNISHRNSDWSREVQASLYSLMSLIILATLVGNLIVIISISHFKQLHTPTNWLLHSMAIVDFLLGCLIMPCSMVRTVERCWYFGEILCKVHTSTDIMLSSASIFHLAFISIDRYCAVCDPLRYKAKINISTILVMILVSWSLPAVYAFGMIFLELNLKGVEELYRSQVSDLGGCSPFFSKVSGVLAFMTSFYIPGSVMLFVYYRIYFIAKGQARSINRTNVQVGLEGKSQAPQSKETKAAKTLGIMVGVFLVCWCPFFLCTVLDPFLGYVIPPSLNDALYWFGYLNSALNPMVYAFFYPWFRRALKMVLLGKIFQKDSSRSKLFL
Quick note: pKi means taking -log10 of the concentration in moles per liter.

Short answer on UniProt:Q923Y8 for `O=C(Nc1ccc(SC2CNC2)cc1)c1cnc(C2CC2)nc1` , pKi: 8.07

Short answer on UniProt:Q923Y8 for `O=C(Nc1ccc(CC2CNC2)cc1)Nc1ccc(C(F)(F)F)cc1` , pKi: 8.06

Short answer on UniProt:Q923Y8 for `CCOc1ccc(C(=O)Nc2ccc(C[C@H]3NC[C@H]3F)cc2)cn1` , pKi: 8.01

Short answer on UniProt:Q923Y8 for `O=C(Nc1ccc(OC2CNC2)c(F)c1)c1cnc(C(F)(F)F)nc1` , pKi: 7.79

Short answer on UniProt:Q923Y8 for `O=C(Nc1ccc(OC2CNC2)c(F)c1)c1cnc(C2CC2)nc1` , pKi: 7.81
